Ref: the PETadex activity labels (doi:10.1038/s41586-022-04599-z)

Entries and their Proxy for plastic degradation values follow.
# Substrate: PET
# assay-comment: Proxy for plastic degradation [Released monomer concentration (HPLC/LC-MS) (MHET+TPA)]
# protocol-conditions: pH 8; 40 °C; part of the chain shown
quantity: Proxy for plastic degradation (mM)

- unnamed (protein) QTNPYARGPNPTAASLEASAGPFTVRSFTVSRPSGYGAGTVYYPTNAGGTVGAIAIVPGYTARQSSIKWWGPRLASHGFVVITIDTNSTLDQPESRSSQQMAALRQVASLNGTSSSPIYGKVDTARMGVMGWSMGGGGSLISAANNPSLKAAAPQAPWHSSTNFSSVTVPTLIFACENDSIAPVNSSALPIYDSMSQNAKQFLEIKGGSHSCANSGNSNQALIGKKGVAWMKRFMDNDTRYSTFACENPNSTAVSDFRTANCSLEHHHHHH: 32
- unnamed (protein) QTNPYARGPNPTAASLEASAGPFTVRSFTVSRPSGYGAGTVYYPTNAGGTVGAIAIVPGYTARQSSIKWWGPRLASHGFVVITIDTNSTFDYPSSRSSQQMAALRQVASLNGDSSSPIYGKVDTARMGVMGHSMGGGASLRSAANNPSLKAAIPQAPWDSQTNFSSVTVPTLIFACENDSIAPVNSHALPIYDSMSRNAKQFLEINGGSHSCANSGNSNQALIGKKGVAWMKRFMDNDTRYSTFACENPNSTAVSDFRTANCSLEHHHHHH: 2
- unnamed (protein) QTNPYARGPNPTAASLEASAGPFTVRSFTVSRPSGYGAGTVYYPTNAGGTVGAIAIVPGYTARQSSIKWWGPRLASHGFVVITIDTNSTLDQPSSRSSQQMAALRQVASLNGTSSSPIYGKVDTARMGVMGWSMGGGGSLISAANNPSLKAAAPQAPWDSSTNFSSVTVPTLIFACENDSIAPVNSSALPIYDSMSRNAKQFLEINGGSHSCANSGNSNQALIGKKGVAWMKRFMDNDTRYSTFACENPNSTRVSDFRTANCSLEHHHHHH: 0.2
- unnamed (protein) QTNPYARGPNPTAASLEASAGPFTVRSFTVSRPSGYGAGTVYYPTNAGGTVGAIAIVPGYTARQSSIKWWGPRLASHGFVVITIDTNSTLDQPESRSSQQMAALRQVASLNGTSSSPIYGKVDTARMGVMGWSMGGGGSLISAANNPSLKAAAPQAPWHSSTNFSSVTVPTLIFACENDSIAPVNSSALPIYDSMSRNAKQFLEINGGSHSCANSGNSNQALIGKKGVAWMKRFMDNDTRYSTFACENPNSTAVSDFRTANCSLEHHHHHH: 13
